# RECORDED CONDITIONS: buffer; pH 7.4; 200.0 µM
Catalogue of solubility kinetic readings, one per entry.

{"MOLECULE": "COCCCn1c(SCC(=O)NC2CCCC2)nnc1-c1ccncc1", "solubility kinetic": "> 56.3 µg/mL"}
{"MOLECULE": "CN(C)NC(=O)c1cccc(Cl)c1", "solubility kinetic": "> 29.8 µg/mL"}
{"MOLECULE": "Cc1cc(C)c(C)c(OCCNCc2ccccc2)c1.O=C(O)C(=O)O", "solubility kinetic": "> 53.9 µg/mL"}
{"MOLECULE": "COc1ccccc1N1C(N)=NC(N)=NC12CCCCC2.Cl", "solubility kinetic": "> 48.6 µg/mL"}
{"MOLECULE": "COCCCNC(=O)c1ccc(NC(C)=O)cc1", "solubility kinetic": "> 37.5 µg/mL"}
{"MOLECULE": "COc1cc(/C=C2/C(=O)ON=C2C)cc(Cl)c1O", "solubility kinetic": "> 40.2 µg/mL"}
{"MOLECULE": "COc1ccc(CN2CCC(C(=O)c3ccc(F)cc3)CC2)cc1", "solubility kinetic": "> 49.1 µg/mL"}
{"MOLECULE": "Cc1ccc(NC(=O)Nc2ccc3c(c2)CCC3)c(C)c1", "solubility kinetic": "< 0.3 µg/mL"}
{"MOLECULE": "COC(=O)c1ccc(C)c(NC(=O)Cn2c(C)csc2=O)c1", "solubility kinetic": "> 48.1 µg/mL"}
{"MOLECULE": "Cn1cc(SCC(=O)NC2CCCC2)c2ccccc21", "solubility kinetic": "> 43.3 µg/mL"}
{"MOLECULE": "O=C(CC(=O)c1ccccc1)Nc1ccccn1", "solubility kinetic": "> 36 µg/mL"}
{"MOLECULE": "Cc1cccc(C)c1NC(=S)N1CC(C)OC(C)C1 (stereo not drawn)", "solubility kinetic": "> 41.8 µg/mL"}
{"MOLECULE": "CCOc1cccc2cc(C(=O)N3CC(C)OC(C)C3)c(=O)oc12 (stereo not drawn)", "solubility kinetic": "> 49.7 µg/mL"}
{"MOLECULE": "Cl.NC(CCC(=O)O)C12CC3CC(CC(C3)C1)C2 (stereo not drawn)", "solubility kinetic": "> 41.1 µg/mL"}
{"MOLECULE": "COc1ccc2c(c1)sc1nc(=O)ccn12", "solubility kinetic": "> 34.8 µg/mL"}
{"MOLECULE": "CCCN1CCC(NC(=S)Nc2cccc(Cl)c2Cl)CC1", "solubility kinetic": "> 51.9 µg/mL"}
{"MOLECULE": "O=[N+]([O-])c1ccccc1S(=O)(=O)Nc1ccc(S(=O)(=O)N2CCCC2)cc1", "solubility kinetic": "> 61.7 µg/mL"}
{"MOLECULE": "CCN(CC(=O)NCc1cccs1)C(=O)CCOc1ccccc1", "solubility kinetic": "> 52 µg/mL"}
{"MOLECULE": "O=C(NCCN1CCOCC1)Nc1ccc(F)cc1", "solubility kinetic": "> 40.1 µg/mL"}
{"MOLECULE": "CCOc1cccc(CN2CCN(Cc3ccc(C)o3)C(CCO)C2)c1O (stereo not drawn)", "solubility kinetic": "> 56.2 µg/mL"}
{"MOLECULE": "CC1CCCN(C(=O)CCCC(=O)N2CCCC(C)C2)C1 (stereo not drawn)", "solubility kinetic": "> 44.2 µg/mL"}
{"MOLECULE": "CC1CN(CCC(=O)Nc2ccccc2F)CC(C)O1 (stereo not drawn)", "solubility kinetic": "> 42.1 µg/mL"}
{"MOLECULE": "C=Cc1ccc(Cn2c(C(=O)O)c(C=O)c3ccccc32)cc1", "solubility kinetic": "> 45.8 µg/mL"}
{"MOLECULE": "O=C(Nc1ccccc1F)c1c[nH]c(=O)[nH]c1=O", "solubility kinetic": "5.5 µg/mL"}
{"MOLECULE": "Cc1cccc(C)c1OCCCCN1CCCCC1.O=C(O)C(=O)O", "solubility kinetic": "45.4 µg/mL"}
{"MOLECULE": "CN(C(=O)c1ccncc1)C1CCCN(Cc2ccccc2F)C1 (stereo not drawn)", "solubility kinetic": "> 49.1 µg/mL"}
{"MOLECULE": "O=C1c2ccccc2CN1CCNC(=S)NC1CCCCC1", "solubility kinetic": "> 47.6 µg/mL"}
{"MOLECULE": "Cc1cccc(NC2=NCCCS2)c1", "solubility kinetic": "> 30.9 µg/mL"}
{"MOLECULE": "Cc1sc2ncnc(N[C@@H](Cc3ccccc3)C(=O)O)c2c1C", "solubility kinetic": "46.8 µg/mL"}
{"MOLECULE": "O=C(c1ccc([N+](=O)[O-])cc1)N1CCN(c2ncccn2)CC1", "solubility kinetic": "46.3 µg/mL"}
{"MOLECULE": "Clc1ccccc1CSc1nncn1-c1cccnc1", "solubility kinetic": "> 45.4 µg/mL"}
{"MOLECULE": "O=C(COc1cccc(F)c1)Nc1nc(-c2cccnc2)cs1", "solubility kinetic": "7.3 µg/mL"}
{"MOLECULE": "NC(=O)C1CCN(C(=O)COc2ccc3c(c2)oc(=O)c2ccccc23)CC1", "solubility kinetic": "10.8 µg/mL"}
